From: ChEMBL document CHEMBL4689842

Test system: HEK-293T
Method Summary: Multiplex assay against HEK293T
Format: toxicity, cell-based
Measurement Setup: human, 24 h, 1 µM, compound concentration 1 uM, replicate 1
Population Membrane Permeable-Phenotype (%) overview

Field: example entries. Status: answers known.
CN(C)C(=O)N[C@H]1CC[C@H](CCN2CCN(c3cccc(Cl)c3Cl)CC2)CC1.Cl [CARIPRAZINE HYDROCHLORIDE]	1%
C=CC(=O)Nc1ccc2ncnc(Nc3ccc(OCc4cccc(F)c4)c(Cl)c3)c2c1.Cc1ccc(S(=O)(=O)O)cc1	3%
O=C(NCCCC1CCCCC1)c1ccc(CNC(=O)c2cnn(-c3ccccc3)c2C(F)(F)F)cc1 [SR-321]	2% [middle of 4 runs]

Prompt: I have this compound here, C[C@@]1(C(=O)Nc2ccc(F)nc2)CCCN1c1nc(Nc2cc(C3CC3)n[nH]2)c2cccn2n1 [BMS-754807] , and I need its recorded Population Membrane Permeable-Phenotype (%).
Completion: 8%
